Each recorded value in this set is attributed to PubChem BioAssay AID2490.

# target system: Thyroid hormone receptor beta (Homo sapiens)
# test protocol: Secondary Confirmation Assay for Inhibitors of the Interaction of Thyroid Hormone Receptor and Steroid Receptor Coregulator 2, Texas Red Fluoroprobe
# measurement context: TRb LBD / Texas Red SRC2 peptide fluorescence polarization
Active and inactive are the calls of the source. Calls follow the shape of the full dose curve.
Possible outcomes: active, inactive

• CCN1CCN(C(=O)COC(=O)c2ccc(S(C)(=O)=O)c([N+](=O)[O-])c2)CC1C (stereo not drawn) = inactive
• CC1CCCCN1C(=O)COC(=O)c1ccc(S(C)(=O)=O)c([N+](=O)[O-])c1 (stereo not drawn) = active
• C[S+](=O)([O-])c1ccc(C(=O)OCC(=O)NC2C3CC4CC(C3)CC2C4)cc1 (stereo not drawn) = inactive
• CCN(CC)C(=O)COC(=O)c1ccc(S(C)(=O)=O)c([N+](=O)[O-])c1 = active
• CS(=O)(=O)c1ccc(C(=O)OCC(=O)N2Cc3ccccc3C2)cc1[N+](=O)[O-] = active
• CS(=O)(=O)c1ccc(C(=O)OCC(=O)N2CCCc3ccccc32)cc1[N+](=O)[O-] = active
• O=C(COC(=O)c1ccc(Cl)c([N+](=O)[O-])c1)NC1C2CC3CC(C2)CC1C3 (stereo not drawn) = inactive
• C#CCNC(=O)COC(=O)c1ccc(S(C)(=O)=O)c([N+](=O)[O-])c1 = inactive
• CCC(OC(=O)c1ccc(S(C)(=O)=O)c([N+](=O)[O-])c1)C(=O)NC1C2CC3CC(C2)CC1C3 (stereo not drawn) = active
• CC(=O)N1CCN(C(=O)COC(=O)c2ccc([S+](C)(=O)[O-])c([N+](=O)[O-])c2)CC1 = inactive
• CS(=O)(=O)c1ccc(C(=O)OCC(=O)N2CCc3ccccc32)cc1[N+](=O)[O-] = active
• CCCC1CCN(C(=O)COC(=O)c2ccc(S(C)(=O)=O)c([N+](=O)[O-])c2)CC1 = active
• O=C(COC(=O)c1cc([N+](=O)[O-])ccc1Cl)NC1C2CC3CC(C2)CC1C3 (stereo not drawn) = inactive
• CC(=O)c1cccc(NC(=O)COC(=O)c2ccc(S(C)(=O)=O)c([N+](=O)[O-])c2)c1 = inactive
• N#Cc1ncc(C(=O)OCC(=O)NC2C3CC4CC(C3)CC2C4)cn1 (stereo not drawn) = inactive
• CC(=O)c1cccc(NC(=O)C(C)OC(=O)c2ccc(S(C)(=O)=O)c([N+](=O)[O-])c2)c1 (stereo not drawn) = active
• O=C(COC(=O)c1cccc([N+](=O)[O-])c1)NC1C2CC3CC(C2)CC1C3 (stereo not drawn) = inactive
• CS(=O)(=O)c1ccc(C(=O)OCC(=O)N2CCCCC2)cc1[N+](=O)[O-] = active
